Origin of measurements: ChEMBL document CHEMBL4371058

# assay_system: Short transient receptor potential channel 5 (Mus musculus)
# Sequence (Q9QX29 whole entry): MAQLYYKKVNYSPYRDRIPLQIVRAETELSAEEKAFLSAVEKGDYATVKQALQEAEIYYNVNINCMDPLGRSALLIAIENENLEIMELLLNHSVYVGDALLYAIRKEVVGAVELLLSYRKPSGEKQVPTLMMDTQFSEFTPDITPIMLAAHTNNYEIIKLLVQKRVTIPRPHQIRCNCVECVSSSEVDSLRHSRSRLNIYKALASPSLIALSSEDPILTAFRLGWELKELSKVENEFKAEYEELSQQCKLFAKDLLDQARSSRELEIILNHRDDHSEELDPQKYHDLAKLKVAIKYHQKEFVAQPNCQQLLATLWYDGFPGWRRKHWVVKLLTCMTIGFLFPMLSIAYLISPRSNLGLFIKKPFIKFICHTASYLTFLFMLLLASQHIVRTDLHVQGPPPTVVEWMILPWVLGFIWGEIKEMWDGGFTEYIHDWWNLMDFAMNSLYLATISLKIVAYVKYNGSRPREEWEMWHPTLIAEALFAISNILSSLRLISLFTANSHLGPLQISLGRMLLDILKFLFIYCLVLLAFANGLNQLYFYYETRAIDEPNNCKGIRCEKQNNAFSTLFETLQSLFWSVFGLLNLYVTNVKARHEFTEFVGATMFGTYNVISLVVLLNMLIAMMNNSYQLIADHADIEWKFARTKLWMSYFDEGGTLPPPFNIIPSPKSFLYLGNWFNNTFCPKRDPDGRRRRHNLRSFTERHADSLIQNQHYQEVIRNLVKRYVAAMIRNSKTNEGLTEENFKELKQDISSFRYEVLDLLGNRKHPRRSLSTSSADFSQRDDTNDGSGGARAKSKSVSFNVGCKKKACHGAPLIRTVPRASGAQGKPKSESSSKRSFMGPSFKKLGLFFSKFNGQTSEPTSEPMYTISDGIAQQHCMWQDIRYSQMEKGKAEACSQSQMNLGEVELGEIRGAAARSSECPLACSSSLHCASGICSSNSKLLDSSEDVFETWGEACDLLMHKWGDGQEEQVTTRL
# protocol_notes: Inhibition of mouse TRPC5 expressed in Flp-In-T-Rex-HEK293 cells assessed as reduction in […]-induced channel current by automated patch clamp method
Please use fulfilled for IC50 under 10 µM and not fulfilled for everything else, ties included.

Field: example entries. Status: answers known.
> print(dat)
                                    molecule     class.name
 1      Cc1cccc(Cn2c(NCc3ccco3)nc3ccccc32)c1      fulfilled
 2          Cc1ccoc1CNc1nc2ccccc2n1Cc1ccccc1      fulfilled
 3     Cc1cc2nc(NCc3ccco3)n(Cc3ccccc3)c2cc1C  not fulfilled
 4    COc1ccc(Cn2c(NCc3ccco3)nc3ccccc32)cc1F  not fulfilled
 5       c1ccc(Cn2c(NCc3cccs3)nc3ccccc32)cc1      fulfilled
 6      Fc1ccc(Cn2c(NCc3ccco3)nc3ccccc32)cc1      fulfilled
 7  CC(Nc1nc2ccccc2n1Cc1ccccc1)c1ccco1 (stereo unspecified)      fulfilled
 8    Fc1cc(Cl)ccc1Cn1c(NCc2ccco2)nc2ccccc21  not fulfilled
 9               CCCn1c(NCc2ccco2)nc2ccccc21  not fulfilled
10       c1ccc(Cn2c(NCc3ccco3)nc3ccccc32)cc1      fulfilled

query: Input Fc1ccc(Cn2c(NCc3ccco3)nc3ccccc32)c(F)c1 ; condition: IC50 strictly below 10 µM. Does it hold?
result: fulfilled
